Target: hSTING (Homo sapiens, UniProt Q86WV6, G230A/H232R/R293Q/R71H)
Construct: host or cells: THP1-Dual KO-IFNAR2 cells
Sequence (Q86WV6 whole entry R71H/G230A/H232R/R293Q): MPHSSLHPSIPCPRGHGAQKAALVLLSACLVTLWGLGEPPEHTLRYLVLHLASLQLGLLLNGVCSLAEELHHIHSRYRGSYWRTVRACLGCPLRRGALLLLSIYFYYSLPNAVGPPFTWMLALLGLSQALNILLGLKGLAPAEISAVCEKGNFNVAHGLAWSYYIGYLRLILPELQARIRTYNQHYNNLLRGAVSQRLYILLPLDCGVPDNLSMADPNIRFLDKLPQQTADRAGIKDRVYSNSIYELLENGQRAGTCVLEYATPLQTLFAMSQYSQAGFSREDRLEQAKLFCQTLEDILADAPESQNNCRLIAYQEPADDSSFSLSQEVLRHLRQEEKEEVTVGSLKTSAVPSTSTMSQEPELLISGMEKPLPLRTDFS
Assay: STING reporter assay (luciferase) in THP1-Dual KO-IFNAR2 cells activated with 2′3′cGAMP
Format: cell-based
Conditions: THP1-Dual KO-IFNAR2 cells; 2′3′cGAMP 15 μM final, Lipofectamine 2000; 24 h; luciferase reporter activity; read-out: hSTING EC50
Consider the following compounds; for each one, report its EC50.

The cases that follow already have their EC50 on record.
INSERT INTO results (compound, measvalue) VALUES
  ('O=C(Nc1c[nH]c2cc(F)c(F)cc12)c1n[nH]c2cc(OCC(F)(F)F)ccc12', '0.04 to 0.2 µM'),
  ('CC(C)(C)OC(=O)N1CCc2c(C(=O)Nc3c[nH]c4cc(F)c(F)cc34)ncn2CC1', '5 to 100 µM'),
  ('Cc1ccc2c(C(=O)Nc3c[nH]c4cc(F)c(F)cc34)cnn2c1', '0.2 to 1 µM'),
  ('O=C(Nc1c[nH]c2cc(F)c(F)cc12)c1n[nH]c2nc(N3CCC(F)(F)CC3)c(Cl)cc12', '0.2 to 1 µM'),
  ('O=C(Nc1c[nH]c2cc(F)c(F)cc12)c1cnc2cc(OCC(F)(F)F)ccn12', '0.04 to 0.2 µM');

Field: EC50. Fill in for each record below.
1. O=C(Nc1c[nH]c2ccccc12)c1n[nH]c2cc(OCC(F)(F)F)ccc12
2. CC(C)(C)OC(=O)N1CCCn2nc(C(=O)Nc3c[nH]c4cc(F)c(F)cc34)cc2C1

["0.04 to 0.2 µM", "5 to 100 µM"]

Reference source for all entries: patent US20230250088A1
